Values from patent US5686486A

# target.or.test.system: HIV-1 protease (Human immunodeficiency virus type 1 group M subtype B, UniProt P04585)
# assay.details: biochemical
# setup.conditions: read-out: HIV-1 Protease % Inhib, dose 30.000 uM
# inhibition at 30 µM listing for each entry below

{"columns": ["compound", "inhibition at 30 µM (%)"],
 "data": [
  ["O=c1oc2c(c(O)c1C(c1cccc(NS(=O)(=O)c3cccc(NO)c3)c1)C1CC1)CCCCCC2 (stereo not shown) [Example 353 (Second Title Compound)]", 107],
  ["CN(C)S(=O)(=O)Nc1cccc(C(c2c(O)c3c(oc2=O)CCCCCC3)C2CC2)c1 (stereo not shown) [Example 398]", 105],
  ["CN(C)c1ccc(N=Nc2ccc(S(=O)(=O)Nc3cccc(C(c4c(O)c5c(oc4=O)CCCCCC5)C4CC4)c3)cc2)cc1 (stereo not shown) [Example 309]", 19.2],
  ["Nc1cccc(S(=O)(=O)Nc2cccc(C(c3c(O)c4c(oc3=O)CCCCCC4)C3CC3)c2)c1 (stereo not shown) [Example 353 (First Title Compound)]", 92.9]
]}
